Data provenance is the RNAGym collection of RNA variant scans (doi:10.7554/elife.90254).

B1: LINE1-full (parent)
chain: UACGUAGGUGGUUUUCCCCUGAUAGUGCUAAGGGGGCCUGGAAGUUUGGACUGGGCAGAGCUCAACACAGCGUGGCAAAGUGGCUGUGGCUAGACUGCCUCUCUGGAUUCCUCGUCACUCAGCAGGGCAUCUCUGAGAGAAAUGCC

- Variants of: B1
- experiment summary: self-cleavage, relative activity (ratio to wild type); higher = more cleavage; in vitro, sequencing; the parent is a self-cleaving ribozyme
readout type: self-cleavage
Field format: numeric only.

mutation notation	self-cleavage
G88C A141G	0.14
U73A U85C	0.1
A42U U73C	1.56
A42G U119A	0.95
U87A C123U	0.06

Sure, the documented self-cleavage for U96A U130C is 0.06

Sure, the documented self-cleavage for C101A A141G is 1.64

Sure, the documented self-cleavage for U29A A142G is 1.04

Sure, the documented self-cleavage for A79U U132C is 2.24

Sure, the documented self-cleavage for U5C G40A is 0.42
